Reference source for all entries: the supplement of paper PMC9170038

test system: MS2 coat protein; test: apparent KD of MS2 coat protein; designed switch direction (-1 OFF switch, 1 ON switch): -1; higher = weaker reporter binding; conditions: Eterna round: R95; input ligand: microRNA oligo, concentration not stated
Would you please tag the item Fulfilled when its apparent KD of MS2 coat protein is 30 nM or above, and Not fulfilled when it is below?

construct.sequence: AAUAACAAGCAGGUCCUAAACAUGAGGAUCACCCAUGUGCUCGUCUUGUAAAGUACUAUCACGAAAGUGAUAGUACA [Sensor 3, v1 - 60] (puzzle: Sensor v3, turn-off variant 1)
class: Fulfilled

Dear colleague, could you confirm whether UUUGUUUAUGUGAGGAUAUACUGUUUGUUUUGUUUGUAGAAGGUACAUGAGGAUCACCCAUGUUUUGUUUUUUU [JR_BME4_Sub033] (puzzle: Brourd's mod of Exclusion 4) has apparent KD of MS2 coat protein at or above 30 nM?
Not fulfilled

Dear colleague, could you confirm whether AUUUUAACAUAGGAUAUCGAAUUUAUUAUUUAACGAGAAGGAUGAACAUGAGGAUCACCCAUGUGGUAUCAUGA [Mat - Exclusion 6 - JL Mod - D21] (puzzle: Exclusion 6) has apparent KD of MS2 coat protein at or above 30 nM?
Fulfilled

Dear colleague, could you confirm whether AUAAGCUUUGAUAUCCUUAACAUGAGGAUCACCCAUGUUCGUCUUAUGAUGGUCUGAUCCCUGAGGAUCGGACCGUU [JL-sv1-2.06 Brourd Mod] (puzzle: Sensor v3, turn-off variant 1) has apparent KD of MS2 coat protein at or above 30 nM?
Fulfilled

Dear colleague, could you confirm whether GUUUGCGCAGGAUAUACAUGAGGAUCACCCAUGUGAGAGAAAUAAGUGAGGAAGAAAAGUAGAAGGGCGUGACG [Mat - Exclusion 3 - Mod of Salish D71] (puzzle: Exclusion 3) has apparent KD of MS2 coat protein at or above 30 nM?
Fulfilled

Dear colleague, could you confirm whether AUACCAUGCCGCCUAAUAGCUUUUUGCUCGUCUUAUAAAACAUGAGGAUCACCCAUGUAAAACUCGUGGCGUGACCC [Leorbixe] (puzzle: Sensor v3, turn-off variant 2) has apparent KD of MS2 coat protein at or above 30 nM?
Not fulfilled

Dear colleague, could you confirm whether GUAUAUAGUGUGAGGAUAUGCUGGUCCUUGGAUCAGCAGAAGGCACAUGAGGAUCACCCAUGUAGUUUAUUUUG [Mat - Exclusion 4 - JL Mod - D7] (puzzle: Brourd's mod of Exclusion 4) has apparent KD of MS2 coat protein at or above 30 nM?
Not fulfilled

Dear colleague, could you confirm whether UAGAAUCGAGGAUAUACAUGAGGAUCACCCAUGUGUUGCCGCAUGAUAUGAUCGUCAGGUAGAAGGCGAUUAUA [Exclusion 3 - Mod of Jieux's Gilly Gone Silly 23 v.6] (puzzle: Exclusion 3) has apparent KD of MS2 coat protein at or above 30 nM?
Fulfilled

Dear colleague, could you confirm whether CAUGAUCUUCGGAUCAUGGACAUGAGGAUCACCCAUGUCACGAGCAGAUCUUCAUGCAAGCUUUUUGCUCGUCUUAU [Sensor v3 - Turn-off variant 1 - 38] (puzzle: Sensor v3, turn-off variant 1) has apparent KD of MS2 coat protein at or above 30 nM?
Fulfilled

Dear colleague, could you confirm whether CAGGGUAGAGGAUAUACGUAGGUACAGAUCUGUGUGAUCCUACAUGAGGAUCACCCAUGUAGAAGGCUAGCCUG [LRO-Excl2-07] (puzzle: Exclusion 2) has apparent KD of MS2 coat protein at or above 30 nM?
Fulfilled
